Tested on: Pseudomonas sp. ATCC 21439 (Obligate)
runDescription: sec-alcohols to ketones by resting cell suspensions
Assay type: cell-based
runConditions: methanol-grown cells
Experimental: The pH of the nutrient medium was adjusted to 7.0 by the addition of acid or base and 50 ml. samples of the nutrient medium were charged into a plurality of 300 ml. shaker flasks. […] A 0.5 ml. sample of each washed cell suspension (2 mg. cells) was put into 10 ml. vials at 4° C. which were sealed with a rubber cap. […] Samples of product (1-3 μl) were withdrawn periodically with a microsyringe and the products were analyzed by gas chromatography (ionization flame detector column). […]
Answer each item with its documented Conversion Rates, sec-alcohol to corresponding ketone.
Answers are plain numbers, in μmoles/hr/mg protein.

As a guide, the following entries are already answered.
CCCC(C)O (stereo not shown)	0.05
CCC(C)O (stereo not shown)	4.7
CCCCC(C)O (stereo not shown)	0.03

Consider the record given below.
The molecule listed as CC(C)O shows Conversion Rates, sec-alcohol to corresponding ketone equal to 7.4
